// pKd lookup, one value per entry
# TARGET_OR_TEST_SYSTEM: T1, trypsin (Bos taurus, UniProt P00760)
# T1 chain: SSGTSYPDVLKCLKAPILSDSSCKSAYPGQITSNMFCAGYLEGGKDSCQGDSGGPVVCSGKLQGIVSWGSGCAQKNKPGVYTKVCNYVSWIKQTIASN
# PROCEDURE_DETAILS: SPR
pKd: −log10 of the molar value.
MEASURED_METRIC: pKd

>>> print(df.to_string())
                                     binder   val
0  HCRG1 (protein) RGICSEPKVVGPCKAGLRRFYYDSETGECKPFIYGGCKGNKNNFETLHACRGICRA  9.66
1  HCRG2 (protein) RGICLEPKVVGPCKARIRRFYYDSETGKCTPFIYGGCGGNGNNFETLHACRGICRA  9.17
